Origin of measurements: ChEMBL document CHEMBL1121509

Recorded Km, one value per entry.
Test: Compound was evaluated for the apparent kinetic constant (Km) for the microsomal oxidation (glycolamide metabolite)
Assay type: ADME
Conditions: microsomes
The reply should contain only the number, in mM.

CC(=O)Nc1ccc(/C=C/c2ccc(Cl)cc2)cc1: 3.5

Consider now this further molecule.
Challenge: Km for `CC(=O)Nc1ccc(/C=C/c2ccc(F)cc2)cc1` ?
Response given: 3.3

----------
Experiment: Compound was evaluated for the kinetic constant (Vmax) for the microsomal oxidation (hydroxamic acid metabolite); Values are pmol(1/mg of microsomal protein)min
Format: ADME
Set-up: unit: pmol/min/mg protein
Conditions: microsomes
Vmax of 100 or higher: Criterion met. Under 100: Criterion not met.

CCCCOc1ccc(/C=C/c2ccc(NC(C)=O)cc2)cc1: Criterion met

Challenge: Given `CC(=O)Nc1ccc(/C=C/c2ccc(Br)cc2)cc1` , state whether its Vmax is at least 100.
Response given: Criterion met

Challenge: Confirm if Vmax reported for the compound `CC(=O)Nc1ccc(/C=C/c2ccc(C#N)cc2)cc1` is 100 or above.
Response given: Criterion met

Challenge: Kindly determine if Vmax recorded for `CC(=O)Nc1ccc(/C=C/c2ccc(F)cc2)cc1` is above or exactly 100.
Response given: Criterion not met

Challenge: Quick check: does `CC(=O)Nc1ccc(/C=C/c2ccccc2)cc1` have Vmax greater than or equal to 100?
Response given: Criterion met

----------
Listed next: entries and their corresponding log10(Km).
Experiment: Compound was evaluated for the apparent kinetic constant (Km) for the microsomal oxidation (hydroxamic acid metabolite)
Assay type: ADME
Conditions: microsomes
Transform log10 | Measure Km | Unit µM

For orientation, consider the following solved cases.
CC(=O)Nc1ccc(/C=C/c2ccc(C)cc2)cc1: 1.78
CC(=O)Nc1ccc(/C=C/c2ccc(Br)cc2)cc1: 3.28
CC(=O)Nc1ccc(/C=C/c2ccc(F)cc2)cc1: 3.46
CCCCOc1ccc(/C=C/c2ccc(NC(C)=O)cc2)cc1: 3.08
CC(=O)Nc1ccc(/C=C/c2ccc(Cl)cc2)cc1: 3.52
CC(=O)Nc1ccc(/C=C/c2ccccc2)cc1: 3.45

Proceeding to the next compound to report its log10(Km).
Challenge: Please look up its log10(Km): `CC(=O)Nc1ccc(/C=C/c2ccc(C#N)cc2)cc1`
Response given: 2.49

----------
Experiment: Compound was evaluated for the apparent kinetic constant (Km) for the microsomal oxidation (hydroxymethyl metabolite)
Assay type: ADME
Details: microsomes
PARAMETER: Km (µM)
Response body: numeric value in µM, unit text excluded.

Challenge: Name the reported Km value associated with the compound `CC(=O)Nc1ccc(/C=C/c2ccc(C(C)(C)C)cc2)cc1`
Response given: 90

----------
Ratio values, listed per item
Experiment: Selectivity ratio of Vmax and Km for microsomal oxidation (hydroxamic acid metabolite)
Assay type: ADME
Conditions: microsomes

Below are worked cases with known answers.
CC(=O)Nc1ccc(/C=C/c2ccc(Cl)cc2)cc1: 0.03
CC(=O)Nc1ccc(/C=C/c2ccc(F)cc2)cc1: 0.03
CC(=O)Nc1ccc(/C=C/c2ccc(C)cc2)cc1: 4.05
CC(=O)Nc1ccc(/C=C/c2ccccc2)cc1: 0.99

Moving on to the next compound.
Challenge: Param item = `CCCCOc1ccc(/C=C/c2ccc(NC(C)=O)cc2)cc1` ; retrieve measured Ratio.
Response given: 0.28
